# TARGET_SYSTEM: CDK1/CyclinB (Homo sapiens, UniProt P06493)
# Sequence (P06493 whole entry, species assumed): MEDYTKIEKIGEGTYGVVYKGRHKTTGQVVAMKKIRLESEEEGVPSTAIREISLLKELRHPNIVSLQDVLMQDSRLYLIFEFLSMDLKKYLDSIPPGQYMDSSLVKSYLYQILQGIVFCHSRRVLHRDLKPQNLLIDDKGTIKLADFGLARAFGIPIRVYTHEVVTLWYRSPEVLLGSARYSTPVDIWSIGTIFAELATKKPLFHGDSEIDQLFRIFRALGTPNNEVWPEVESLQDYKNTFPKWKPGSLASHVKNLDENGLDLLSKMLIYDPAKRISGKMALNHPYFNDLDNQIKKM
# Sequence (P14635 whole entry partner, species assumed): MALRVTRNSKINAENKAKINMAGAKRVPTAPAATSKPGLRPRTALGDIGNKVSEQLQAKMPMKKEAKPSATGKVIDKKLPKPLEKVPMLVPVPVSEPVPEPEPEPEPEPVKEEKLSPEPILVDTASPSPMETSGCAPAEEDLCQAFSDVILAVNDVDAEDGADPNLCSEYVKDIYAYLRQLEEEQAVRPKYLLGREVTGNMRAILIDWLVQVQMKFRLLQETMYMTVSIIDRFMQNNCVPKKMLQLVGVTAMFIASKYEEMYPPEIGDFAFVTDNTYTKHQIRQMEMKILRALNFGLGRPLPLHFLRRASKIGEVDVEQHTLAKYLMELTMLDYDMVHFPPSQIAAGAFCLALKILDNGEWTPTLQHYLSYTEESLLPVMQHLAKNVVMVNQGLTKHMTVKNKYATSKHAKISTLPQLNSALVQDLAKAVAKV
# EXPERIMENT: ADP Glo kinase assay, CDK1/CyclinB
# Format: biochemical
# APPLIED_CONDITIONS: compound at 1 μM, read-out: Residual enzymatic activity (%) at 1 μM, CDK1 B
QUANTITY_KIND: remaining activity at 1 µM
# include the unit after the value

Known remaining activity at 1 µM results, listed for orientation:
COC(=O)N1CCC(c2ccc(Nc3ncc(F)c(-c4cnc5ccc(-c6ccccc6)cn45)n3)cn2)CC1 ... 69%
O=C1NCCC12CCN(c1ccc(Nc3nccc(-c4cnc5ccc(Br)cn45)n3)cn1)CC2 ... 95%
O=C(c1ccco1)N1CCN(c2ccc(Nc3nccc(-c4cnc5ccc(Br)cn45)n3)cn2)CC1 ... 39%

// next entry
Memo: `CN1CCN(c2ccc(Nc3nccc(-c4cnc5ccc(-c6cnn(C(F)F)c6)cn45)n3)cn2)CC1` , reported remaining activity at 1 µM: 32%

----------
In this section, each of the molecules is paired with its reported pKi.
# TARGET_SYSTEM: FLT3-ITD (Homo sapiens)
# EXPERIMENT: ADP Glo kinase assay, FLT3-ITD
# APPLIED_CONDITIONS: Km ATP 100 μM, read-out: Enzymatic inhibition, Ki, FLT3-ITD
# pKi = -log10(concentration in molar units)

Known pKi results, listed for orientation:
CS(=O)(=O)N1CCN(c2ccc(Nc3nccc(-c4cnc5ccc(-c6cc7ccccc7o6)cn45)n3)cn2)CC1 ... 7.24
Fc1cnc(Nc2ccc(N3CCN(CCN4CCOCC4)CC3)nc2)nc1-c1cnc2ccc(-c3ccccc3)cn12 ... 6.83
COC(=O)c1ccc(Nc2nccc(-c3cnc4ccc(Br)cn34)n2)cn1 ... 6.74

Let me check: `CN1CCN(Cc2ccc(Nc3nccc(-c4cnc5ccc(-c6ccccc6)cn45)n3)cn2)CC1` , system FLT3-ITD (Homo sapiens), measured pKi is 7.05

Let me check: `Fc1cnc(Nc2cccnc2)nc1-c1cnc2ccccn12` , system FLT3-ITD (Homo sapiens), measured pKi is 6.65

Let me check: `Cc1cnc(Nc2ccc(N3CCOCC3)nc2)nc1-c1cnc2ccccn12` , system FLT3-ITD (Homo sapiens), measured pKi is 8.05

----------
# TARGET_SYSTEM: CDK2/CyclinA2 (Homo sapiens, UniProt P24941)
# EXPERIMENT: ADP Glo kinase assay, CDK2/CyclinA2
# APPLIED_CONDITIONS: Km ATP, read-out: Enzymatic inhibition, Ki, CDK2 A
QUANTITY_KIND: pKi
# pKi = -log10(concentration in molar units)

Let me check: `CC(C)N1CCN(c2ccc(Nc3nccc(-c4cnc5ccc(Cl)cn45)n3)cn2)CC1` , system CDK2/CyclinA2 (Homo sapiens, UniProt P24941), measured pKi is 7.14

Let me check: `CN1CCN(Cc2ccc(Nc3nccc(-c4cnc5ccc(Br)cn45)n3)cn2)CC1` , system CDK2/CyclinA2 (Homo sapiens, UniProt P24941), measured pKi is 7.40

Let me check: `Fc1cnc(Nc2ccc(N3CCOCC3)nc2)nc1-c1cnc2ccccn12` , system CDK2/CyclinA2 (Homo sapiens, UniProt P24941), measured pKi is 8.52

----------
# Test system: MV-4-11
# EXPERIMENT: Proliferation assay (resazurin, leukemia cell lines), MV-4-11
# Type: cell-based
# APPLIED_CONDITIONS: Homo sapiens, MV4-11, read-out: 72 h Growth inhibition GI50, MV-4-11 cells
In this section, each of the compounds is paired with its reported GI50.
The answer is to be given in nM; state only the numeric part.

Known GI50 results, listed for orientation:
Brc1ccc2ncc(-c3ccnc(Nc4ccc(N5CCNCC5)nc4)n3)n2c1 [Compound 42] ... 22
Fc1cnc(Nc2ccc(Cl)nc2)nc1-c1cnc2ccc(-c3ccccc3)cn12 [Compound 34] ... 920

// next entry
Memo: CN1CCN(c2ccc(Nc3nccc(-c4cnc5ccc(Br)cn45)n3)cn2)CC1 [Compound 5] , reported GI50: 7
